test name: Cellular Toxicity (caspase-3) Hek293 (AID 664);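 further: cells exposed to compound for 16 h at 37 °C before readout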
study conditions: HEK293 caspase-3 activation, DMSO = 0%, 100 µM tamoxifen = 100%; at 92.2 µM (top of the series)
Results filed as inconclusive are left out. Active and inactive are the calls of the source. The call rests on the fitted dose curve; in most records, active means well fitted activation curve with a large enough effect; inconclusive means small, poorly fitted or top-dose-only effect; inactive means flat fitted curve, though single readings scatter.
Outcomes: Y (active), N (inactive)

{"columns": ["mol", "label"],
 "data": [
  ["Cc1cc(Nc2ccc(O)cc2)ccc1N", "N"],
  ["Nc1ccc2cc3ccccc3cc2c1", "N"],
  ["Cc1ccc(S(=O)(=O)Oc2ccc(N=Nc3ccc(-c4ccc(N=Nc5c(O)ccc6cc(S(=O)(=O)O)cc(S(=O)(=O)O)c56)c(C)c4)cc3C)cc2)cc1", "N"],
  ["O=C(OCC(COC(=O)c1ccccc1)(COC(=O)c1ccccc1)COC(=O)c1ccccc1)c1ccccc1", "N"],
  ["CCCCCC/C(C=O)=C\\c1ccccc1", "N"],
  ["CN(C)c1ccc(C2(c3ccc(N(C)C)cc3)OC(=O)c3cc(N(C)C)ccc32)cc1", "N"],
  ["O=C1OC2(c3cc(Br)c(O)c(Br)c3Oc3c2cc(Br)c(O)c3Br)c2c(Cl)c(Cl)c(Cl)c(Cl)c21", "N"],
  ["Cc1cc(O)c(C(C)(C)C)cc1Sc1cc(C(C)(C)C)c(O)cc1C", "Y"]
]}

====

Test system: TAB165
test name: qHTS profiling for inhibitors of Plasmodium falciparum proliferation (AID 504749); further: nearly all actives have a fitted effect of over 60% in size
study conditions: P. falciparum in erythrocytes, SYBR Green DNA, 72 h; series mostly up to 28.7 µM
Records with an inconclusive call do not appear. Calls of active or inactive are those of the source. Calls come from the whole dose curve; as a rule, active = well fitted inhibition curve with a large enough effect; inconclusive = small, poorly fitted or top-dose-only effect; inactive = flat fitted curve, though single readings scatter.
Outcomes: Y for active, N for inactive

{"columns": ["molecule", "label"],
 "data": [
  ["C/C(=C(/CCO)SS/C(CCO)=C(\\C)N(C=O)Cc1cnc(C)nc1N)N(C=O)Cc1cnc(C)nc1N", "N"],
  ["Cc1ccc(S(=O)(=O)NC(=O)NC(C)Cc2ccccc2)cc1 (centres undefined)", "N"],
  ["O=C1CC[C@H](C(=O)N[C@@H]2C[C@H]2c2ccccc2)N1", "N"],
  ["CO/N=C(/C(=O)N[C@@H]1C(=O)N2C(C(=O)O)=C(CSc3cnns3)CS[C@H]12)c1csc(N)n1", "N"],
  ["C#C[C@]1(O)CC[C@H]2[C@H]3[C@H](CC[C@@]21C)C1=C(CC(=O)CC1)C[C@@H]3C", "N"],
  ["C=C(CC[C@@H](C)[C@H]1CCC2[C@]1(C)CC[C@]13C[C@@]14CCC(OC(=O)/C=C/c1ccc(O)c(OC)c1)C(C)(C)[C@@H]4CC[C@@]23C)C(C)C (some centres undefined)", "N"],
  ["Cn1cc(C(=O)[C@@H]2CCc3[nH]cnc3C2)c2ccccc21", "N"],
  ["CO/N=C(/C(=O)N[C@@H]1C(=O)N2C(C(=O)O)=C(C[n+]3ccc(N)n3CCO)CS[C@H]12)c1csc(N)n1", "N"],
  ["O=C1[C@@H]2C[C@@H]3C[C@H]1C[C@@](O)(C3)C2", "N"],
  ["CNC(=O)C(N)CSC(C)C1=C(C)c2cc3[n-]c(cc4nc(cc5[n-]c(cc1n2)c(C)c5CCC(=O)O)C(CCC(=O)O)=C4C)c(C)c3C(C)SCC(N)C(=O)NC.[Fe+2] (centres undefined)", "N"],
  ["CC1CN(c2c(F)c(N)c3c(=O)c(C(=O)O)cn(C4CC4)c3c2F)CC(C)N1 (centres undefined)", "N"],
  ["CC1OC(OC2CCC3(C)C(CCC4C3CC(O)C3(C)C(C5=CC(=O)OC5)CCC43O)C2)CC(O)C1OC1CC(O)C(OC2CC(O)C(OC3OC(CO)C(O)C(O)C3O)C(C)O2)C(C)O1 (centres undefined)", "N"],
  ["CC(=O)C1(O)Cc2c(O)c3c(c(O)c2C(OC2CC(N)C(O)C(C)O2)C1)C(=O)c1c(O)cccc1C3=O (centres undefined)", "Y"],
  ["Nc1nc(Cl)nc2c1ncn2[C@@H]1O[C@H](CO)[C@H](O)C1F (some centres undefined)", "N"],
  ["O=C(O)[C@H]1C[C@@H](CP(=O)(O)O)CCN1", "N"],
  ["CCCC(=O)Nc1c(I)cc(I)c(C[C@H](CC)C(=O)O)c1I", "N"],
  ["Nc1nc(/C(=C/CC(=O)O)C(=O)NC2C(=O)N3C(C(=O)O)=CCSC23)cs1 (centres undefined)", "N"],
  ["C=NC(C(=O)NC1C(=O)N2C1SC(C)(C)C2C(=O)O)c1ccccc1 (centres undefined)", "N"],
  ["OCC(O)C(O)C(O)C(O)CO (centres undefined)", "N"]
]}

====

test target: Ubiquitin carboxyl-terminal hydrolase 1 (Homo sapiens)
test name: Inhibitors of USP1/UAF1: Pilot qHTS (AID 504865); further: nearly all actives have a fitted effect of over 35% in size
study conditions: purified USP1/UAF1, Ub-rhodamine cleavage fluorescence; series mostly up to 114 µM
Results filed as inconclusive are left out. The source made the active and inactive calls. The call rests on the fitted dose curve; in most records, active means well fitted inhibition curve with a large enough effect; inconclusive means small, poorly fitted or top-dose-only effect; inactive means flat fitted curve, though single readings scatter.
Outcomes: true (1) = active, false (0) = inactive

{"columns": ["compound", "label"],
 "data": [
  ["CCN1CCN(C(=O)NC(C(=O)NC2C(=O)N3C(C(=O)O)=C(CSc4nnnn4C)CSC23)c2ccc(O)cc2)C(=O)C1=O (stereo not drawn)", "false (0)"],
  ["Cc1cn([C@H]2CC(F)[C@@H](CO)O2)c(=O)[nH]c1=O (stereo partly drawn)", "false (0)"],
  ["CCN(CC)CCOCCOC(=O)C(CC)(CC)c1ccccc1 (tested in a mixture with another compound)", "false (0)"],
  ["CC1(C)OC[C@@H]2O[C@@]3(C(=O)O)OC(C)(C)O[C@@H]3[C@@H]2O1", "false (0)"],
  ["C=C[C@@]1(C)C[C@H](OC(=O)CSC(C)(C)CNC(=O)[C@@H](N)C(C)C)[C@@]2(C)C(C)CC[C@@]3(CCC(=O)[C@@H]32)[C@H](C)[C@H]1O (stereo partly drawn)", "false (0)"],
  ["O=C1Oc2ccccc2C(=O)C1C(CC(O)c1ccc(-c2ccc(Br)cc2)cc1)c1ccccc1 (stereo not drawn)", "true (1)"],
  ["OCC(CO)NC1C[C@](O)(CO)[C@@H](O)[C@H](O)[C@H]1O (stereo partly drawn)", "false (0)"],
  ["NC(=O)c1ncn(C2OC(CO)C(O)C2O)c1N (stereo not drawn)", "false (0)"],
  ["COC(c1ccccc1)(c1ccccc1)C(Oc1nc(C)cc(C)n1)C(=O)O (stereo not drawn)", "false (0)"],
  ["Cc1cnc(C(=O)O)cn1", "false (0)"],
  ["Cc1cc(C(C)(C)CC(C)(C)C)ccc1OCCOCC[N+](C)(C)Cc1ccccc1", "true (1)"],
  ["O=C(NC(CO)C(O)c1ccc([N+](=O)[O-])cc1)C(Cl)Cl (stereo not drawn)", "false (0)"],
  ["COc1ccc(S(=O)(=O)N2c3ccc(Cl)cc3[C@](O)(c3ccccc3Cl)[C@@H]2C(=O)N2CCC[C@H]2C(N)=O)cc1OC", "false (0)"],
  ["CC(=O)CC(c1ccccc1)C1C(=O)Oc2ccccc2C1=O (stereo not drawn)", "false (0)"],
  ["CC(O)C(N)C(=O)O (stereo not drawn)", "false (0)"],
  ["O=c1ccn(C2OC(COP(=O)(O)OC3C(CO)OC(n4ccc(=O)[nH]c4=O)C3O)C(O)C2O)c(=O)[nH]1 (stereo not drawn)", "false (0)"],
  ["CO/N=C(/C(=O)N[C@@H]1C(=O)N2C(C(=O)O)=C(C[n+]3ccc(N)n3CCO)CS[C@H]12)c1csc(N)n1", "false (0)"],
  ["OCC1O[C@@H](O[C@@H]2C(CO)OC(O)C(O)C2O)C(O)C(O)C1O (stereo partly drawn)", "false (0)"],
  ["CC(CN1CC(=O)NC(=O)C1)N1CC(=O)NC(=O)C1 (stereo not drawn)", "false (0)"],
  ["O=C(O)[C@H]1C[C@@H](CP(=O)(O)O)CCN1", "false (0)"],
  ["COc1ccc(CC(C)NCC(O)c2ccc(O)c(NC=O)c2)cc1 (stereo not drawn)", "false (0)"],
  ["C=C1[C@@H]2CC[C@H](C2)C1(C)C", "false (0)"],
  ["NC(=O)OC[C@@H]1[C@H](NC(=O)/C(=N/OCC(=O)O)c2csc(N)n2)C(=O)N1S(=O)(=O)O", "false (0)"],
  ["C=C(NCc1ccccc1)c1ccccc1O", "false (0)"],
  ["CC(=O)NC1[C@H](O)C[C@@](O)(C(=O)O)O[C@H]1[C@H](O)[C@H](O)CO (stereo partly drawn)", "false (0)"],
  ["Cc1cncc(C(=O)O)[n+]1[O-]", "false (0)"],
  ["CCN(CC)C(=O)[C@@]1(c2ccccc2)C[C@@H]1CN", "false (0)"],
  ["C[C@@H](O)[C@@H]1C(=O)N2C(C(=O)O)=C([C@H]3CCCO3)S[C@H]12", "false (0)"],
  ["CC[C@@H]1/C=C(\\C)C[C@H](C)C[C@H](OC)[C@H]2O[C@@](O)(C(=O)C(=O)N3CCCC[C@H]3C(=O)O[C@H](/C(C)=C/[C@@H]3CC[C@H](Cl)[C@H](OC)C3)[C@H](C)[C@@H](O)CC1=O)[C@H](C)C[C@@H]2OC", "false (0)"],
  ["CC1OC(OC2C(O)CC(OC3C(O)CC(OC4CCC5(C)C(CCC6C5CCC5(C)C(C7=CC(=O)OC7)CCC65O)C4)OC3C)OC2C)CC(O)C1O (stereo not drawn)", "false (0)"],
  ["CC(c1ncncc1F)[C@](O)(Cn1cncn1)c1ccc(F)cc1F (stereo partly drawn)", "false (0)"],
  ["CC1(Cn2ccnn2)[C@H](C(=O)O)N2C(=O)C[C@H]2S1(=O)=O (stereo partly drawn)", "false (0)"],
  ["C[N+]12CCCC[C@@H]1CCC(=C(c1cccs1)c1cccs1)C2 (stereo partly drawn)", "false (0)"],
  ["C[C@]12CC[C@@H]3c4ccc(O)cc4CC[C@H]3[C@@H]1C[C@H](O)C2O (stereo partly drawn)", "false (0)"],
  ["CC1(C)O[C@@H]2C[C@H]3[C@@H]4CCC5=CC(=O)C=C[C@]5(C)[C@H]4C(O)C[C@]3(C)[C@]2(C(=O)CO)O1 (stereo partly drawn)", "false (0)"],
  ["Cc1ccc(/C=C2/C(=O)C3(C)CCC2C3(C)C)cc1 (stereo not drawn)", "false (0)"],
  ["CNC(=O)C(N)CSC(C)C1=C(C)c2cc3[n-]c(cc4nc(cc5[n-]c(cc1n2)c(C)c5CCC(=O)O)C(CCC(=O)O)=C4C)c(C)c3C(C)SCC(N)C(=O)NC.[Fe+2] (stereo not drawn)", "false (0)"],
  ["CC1C(=O)C(=O)C=CN1C (stereo not drawn)", "false (0)"]
]}
